procedure_text: Cellular Toxicity (caspase-3) HepG2 (AID 654);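 as to caspase-3 activation: cells exposed to compound for 16 hours before reading; 0% = DMSO alone and 100% = caspase signal from 100 µM tamoxifen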
test_context: HepG2 caspase-3 activation, luminescence; series mostly up to 92.2 µM
Calls of active or inactive are those of the source. Calls follow the shape of the dose curve; as a rule, active = well fitted activation curve with a large enough effect; inconclusive = small, poorly fitted or top-dose-only effect; inactive = flat fitted curve, though single readings scatter.
Entry note: the call must match one of yes (1) for active, no (0) for inactive

Q: For this molecule, state the assay outcome: CO[C@H]1/C=C/O[C@@]2(C)Oc3c(C)c(O)c4c(O)c(c5c(c4c3C2=O)NC2(CCN(CC(C)C)CC2)N=5)=NC(=O)/C(C)=C\C=C\[C@H](C)[C@H](O)[C@@H](C)[C@@H](O)[C@@H](C)[C@H](OC(C)=O)[C@@H]1C
A: no (0)

Q: For this molecule, state the assay outcome: Cc1cc(O)c(C(C)(C)C)cc1Sc1cc(C(C)(C)C)c(O)cc1C
A: yes (1)

Q: For this molecule, state the assay outcome: CCCCCCCC[N+](CCCCCCCC)(CCCCCCCC)CCCCCCCC
A: yes (1)

* * *

procedure_text: Stat Signaling Pathway (AID 446);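 also: ME-180 cervical cancer cells given 40 pM IL-6 alongside compound; SIE-controlled beta-lactamase reporter measured as 460/530 nm FRET emission ratio; % is scaled to controls: 0 for no effect and ±100 for the full control effect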
test_context: ME-180 SIE beta-lactamase reporter, IL-6 stimulated, 5 h; at 17.2 µM (top of the series) unless noted
Records with an inconclusive call do not appear. Active and inactive are the calls of the source. Calls follow the shape of the dose curve; as a rule, active = well fitted curve in either direction with a large enough effect (not every such curve was filed as active); inconclusive = small, poorly fitted or top-dose-only effect, or another doubt; inactive = flat fitted curve, though single readings scatter.
measurement_kind: activity, negative = inhibition

The compound identified as COc1ccc(CCNC2CC(C)N(C)CC2C)cc1OC (stereo unspecified) registered its activity, negative = inhibition at 4.89% (inactive)

The compound identified as CN(Cc1c(O)ccc2c1oc(=O)c1ccccc12)C1CCCCC1 registered its activity, negative = inhibition at 4.77% (inactive)

The compound identified as CCCCOc1ccc(C(=O)Nn2cnnc2)cc1 registered its activity, negative = inhibition at 8.41% (inactive)

The compound identified as COc1cccc(C2/C(=C(/O)c3cnn(-c4ccccc4)c3C)C(=O)C(=O)N2CCN(C)C)c1OC (stereo unspecified) registered its activity, negative = inhibition at 3.83% (inactive)

The compound identified as Cc1cc2c(c(=O)n1CC1CCCO1)C(c1ccc3c(c1)OCO3)C(C#N)=C(N)O2 (stereo unspecified) registered its activity, negative = inhibition at -17.8% (inactive)

The compound identified as Cc1nnc(N2CCOCC2)c2ccccc12 registered its activity, negative = inhibition at 5.08% (inactive)

* * *

Exercise: for every item that follows, state its recorded activity, negative = inhibition.
procedure_text: Stat Signaling Pathway (AID 446);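 also: ME-180 cervical cancer cells given 40 pM IL-6 alongside compound; SIE-controlled beta-lactamase reporter measured as 460/530 nm FRET emission ratio; % is scaled to controls: 0 for no effect and ±100 for the full control effect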
test_context: ME-180 (cervical carcinoma) SIE beta-lactamase reporter, IL-6 stimulated, 5 h; at 17.2 µM (top of the series) unless noted
Records with an inconclusive call do not appear.
Please give a number only; it is taken to be in %.

The compound identified as Cc1c(=O)n(OCc2c(F)cccc2F)c2ccccc2[n+]1[O-] registered its activity, negative = inhibition at 2.13

The compound identified as CC1(c2ccco2)NC(=O)NC1=O (stereo not drawn) registered its activity, negative = inhibition at 5.48

The compound identified as COc1ccc(/C(O)=C2/C(=O)C(=O)N(CCN(C)C)C2c2ccccn2)cc1OC (stereo not drawn) registered its activity, negative = inhibition at -3.63

The compound identified as CN(Cc1ccccc1)Cc1c[nH]c2ccccc12 registered its activity, negative = inhibition at 7.69

The compound identified as CCc1nc(N2CCOCC2)c(C#N)c2c1CCCC2 registered its activity, negative = inhibition at -7.54

The compound identified as CN(C)c1ccc(C=Nc2cnn(C)c2C(N)=O)cc1 registered its activity, negative = inhibition at -12.3

The compound identified as O=C(NCCO)c1cccc2c1C(=O)c1ccccc1-2 registered its activity, negative = inhibition at 10.7

The compound identified as COc1ccc2[nH]c(C)c(C(=O)CN3CCc4cc(OC)c(OC)cc4C3)c2c1 registered its activity, negative = inhibition at 4.19

The compound identified as O=C1CCC(=O)N1CNc1ccccn1 registered its activity, negative = inhibition at 15.6

The compound identified as N#Cc1nc(-c2ccc(Cl)cc2)oc1N1CCCCC1 registered its activity, negative = inhibition at 2.4

The compound identified as CCCCc1c(C)c2ccc(OCC(C)=O)cc2oc1=O registered its activity, negative = inhibition at -0.63

The compound identified as Cc1c(/C(O)=C2/C(=O)C(=O)N(CCCN3CCOCC3)C2c2ccncc2)cnn1-c1ccccc1 (stereo not drawn) registered its activity, negative = inhibition at 5.14

The compound identified as O=C(O)CCSc1ccc2ccccc2n1 registered its activity, negative = inhibition at 0.928

The compound identified as COC(=O)C(NC(=O)c1ccco1)(Nc1nc(C)cs1)C(F)(F)F (stereo not drawn) registered its activity, negative = inhibition at -2.51

The compound identified as COc1cc(C(=O)OCCN2CCCCC2)ccc1O registered its activity, negative = inhibition at 4.68

The compound identified as CCOCCn1c(SC)nc2c1c(=O)[nH]c(=O)n2C registered its activity, negative = inhibition at -1.1

The compound identified as CCSc1nc(O)c(C2OC(=O)c3c2ccc(OC)c3OC)c(=O)n1-c1ccccc1 (stereo not drawn) registered its activity, negative = inhibition at -4.52

The compound identified as Cc1ccc(OCC(=O)N(C)CCc2ccccn2)cc1 registered its activity, negative = inhibition at 6.69
